target system: UniProtKB Q16539
Sequence (Q16539 whole entry): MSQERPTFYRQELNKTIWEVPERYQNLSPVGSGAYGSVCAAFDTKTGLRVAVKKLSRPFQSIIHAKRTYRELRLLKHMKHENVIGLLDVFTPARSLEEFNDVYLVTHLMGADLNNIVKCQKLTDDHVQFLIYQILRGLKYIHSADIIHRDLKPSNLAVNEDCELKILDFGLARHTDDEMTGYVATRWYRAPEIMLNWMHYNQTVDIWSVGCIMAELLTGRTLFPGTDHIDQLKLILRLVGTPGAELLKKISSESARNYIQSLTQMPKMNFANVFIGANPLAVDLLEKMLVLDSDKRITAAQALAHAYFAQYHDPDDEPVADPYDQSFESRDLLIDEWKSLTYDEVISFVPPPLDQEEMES
test: p38 (MAP) kinase in vitro assay (transfer of γ-phosphate from γ-33P-ATP to Myelin Basic Protein)
run conditions: phosphorylated recombinant p38 MAP kinase, MBP substrate, 30° C.
List of IC50 values.

Ask: Give recorded IC50. OC[C@H](O)CNc1cc(Oc2ccc(F)cc2F)cc2[nH]nc(-c3ccccc3Cl)c12 (stereo in doubt)
Reply: ~4 nM

Others:
Ask: Give recorded IC50. "O=C(Nc1n[nH]c2nc(Oc3ccc(F)cc3F)ncc12)c1ccccc1Br"
Reply: ~16 nM

###

List of melting point values.

The following compounds have reported results that may help.
Ask: Give recorded melting point. O=C(Nc1n[nH]c2nc(Oc3ccc(F)cc3F)ncc12)C1CCCC1 [Table 1 #38]
Reply: 206.3 to 207.51 °C

Ask: Give recorded melting point. O=C(Nc1n[nH]c2nc(Oc3ccc(F)cc3F)ncc12)OCc1ccccc1 [Table 1 #42]
Reply: 270.1 to 272 °C

Ask: Give recorded melting point. CCS(=O)(=O)Nc1n[nH]c2nc(Oc3ccc(F)cc3F)ncc12 [Table 1 #14]
Reply: 226 to 226.9 °C

Ask: Give recorded melting point. OC[C@H](O)COc1cc(Oc2ccc(F)cc2F)cc2[nH]nc(-c3ccccc3Cl)c12 (stereo in doubt) [Table 2 #1]
Reply: 93.3 to 94.6 °C

Others:
Ask: Give recorded melting point. CC(C)Nc1n[nH]c2nc(Oc3ccc(F)cc3F)ncc12 [Table 1 #1]
Reply: 211.3 to 214.4 °C
